Test system: OVCAR-4
Experiment: NCI tumour cell line growth inhibition, 48 h
Active and inactive are the calls of the source. Cut-off read from the data, not from the text of the source: active = GI50 up to about 1.1 µM and inactive = higher.
# GI50 values compiled below

ON[C@H]1C[C@@H](n2cnc3c(NC4CC4)ncnc32)[C@H](O)[C@@H]1O	> 100 µM (inactive)

May I ask what GI50 has been recorded for O=C(/C=C/c1ccccc1)c1ccccc1 [CHALCONE] ? > 10 µM (inactive)

May I ask what GI50 has been recorded for O=C1CC2C(=O)C1C(C(=O)O)C2C(=O)O (stereo unspecified) ? > 100 µM (inactive)

May I ask what GI50 has been recorded for CCC1CN(C(=O)c2ccccc2)C(Cc2c[nH]c3ccccc23)C(=O)C1CC(=O)OC (stereo unspecified) ? > 100 µM (inactive)

May I ask what GI50 has been recorded for Cc1c(N)nc(C2CC(=O)N2CC(N)C(N)=O)nc1C(=O)NC(C(=O)NC(C)C(O)C(C)C(=O)NC(C(=O)NCCc1nc(-c2nc(C(=O)NCCNCC(C)O)cs2)cs1)C(C)O)C(OC1OC(CO)C(O)C(O)C1OC1OC(CO)C(O)C(OC(N)=O)C1O)c1c[nH]cn1 (stereo unspecified) ? 7.57 µM (inactive)

May I ask what GI50 has been recorded for CN(C)CCN(C)CC1COC(C)(C)O1 (stereo unspecified) ? > 100 µM (inactive)

---

Tested on: NCI/ADR-RES
Test: NCI tumour cell line growth inhibition, 48 h
Calls of active or inactive are those of the source. Cut-off read from the data, not from the text of the source: active = GI50 up to about 1.1 µM and inactive = higher.
Write down the outcome that applies. Available outcomes: yes for active, no for inactive

Look up the recorded call for OCC1OC(NCCNCCNC2OC(CO)C(O)C(O)C2O)C(O)C(O)C1O (centres undefined) in this test. no

Look up the recorded call for "CCOC(=O)[C@@]12C[C@](/C=C/OC)(O[Si](C)(C)C)[C@@]13c1cc(OC)c(OC)cc1CCN3C(=O)C2=O" in this test. no

Look up the recorded call for Cc1c(N)nc(C2CC(=O)N2CC(N)C(N)=O)nc1C(=O)NC(C(=O)NC(C)C(O)C(C)C(=O)NC(C(=O)NCCc1nc(-c2nc(C(=O)NCCNCC(C)O)cs2)cs1)C(C)O)C(OC1OC(CO)C(O)C(O)C1OC1OC(CO)C(O)C(OC(N)=O)C1O)c1c[nH]cn1 (centres undefined) in this test. no

Look up the recorded call for "CCOC(=O)c1nc2ccc(C(F)(F)F)cc2nc1Oc1ccc(F)cc1" in this test. no

Look up the recorded call for CO[C@H]1C=CO[C@@]2(C)Oc3c(C)c(O)c4c(O)c(c(CN5CCN(C)CC5)c(O)c4c3C2=O)NC(=O)/C(C)=C\C=C[C@H](C)[C@H](O)C(C)[C@@H](O)C(C)[C@H](OC(C)=O)[C@@H]1C (some centres undefined) in this test. no

Look up the recorded call for COC(=O)N/N=C(/c1nc2ccc([N+](=O)[O-])cc2nc1O)C(O)c1ccc(OC)c(OC)c1 (centres undefined) in this test. no

---

# GI50 values compiled below
Tested on: SK-MEL-5
Experiment: NCI tumour cell line growth inhibition, 48 h
Activity calls are given as the source filed them. Cut-off read from the data, not from the text of the source: active = GI50 up to about 1.1 µM and inactive = higher.

For orientation, consider the following solved cases.
CCc1c(O)cc(=O)oc1-c1ccc(OC)c(OC)c1	> 100 µM (inactive)
O=CN/C=C/c1ccccc1O	> 100 µM (inactive)
CC(=O)NC1C(OCc2ccccc2)OC(CO)C(O)C1OC(C)C(=O)N[C@@H](C)C(=O)N[C@H](CCC(=O)OCCNc1c2ccccc2nc2cccc([N+](=O)[O-])c12)C(N)=O (stereo partly specified)	0.00239 µM (active)
O=C(N/N=C/c1ccc(O)cc1)NNCCO	> 100 µM (inactive)
CC(=O)C(=C(I)I)c1ccccc1	15.1 µM (inactive)

State its GI50 on SK-MEL-5: NC(=O)N1N=C2c3ccccc3CC[C@@H]2C1c1ccccc1 (stereo partly specified) 88.7 µM (inactive)

State its GI50 on SK-MEL-5: "C/C(=N\NC(=O)C(N)=O)c1c(O)cc(C)oc1=O" > 100 µM (inactive)

State its GI50 on SK-MEL-5: "COc1ccc(OC)c(CCc2cc(OC)ccc2OC)c1" 0.324 µM (active)

State its GI50 on SK-MEL-5: COc1cccc(C2=NC(C(C)C)CO2)c1 (stereo unspecified) > 100 µM (inactive)

State its GI50 on SK-MEL-5: O=C(OCc1ccccc1)C(Cc1ccc(OCc2ccccc2)cn1)NC(=O)C(F)(F)F (stereo unspecified) 35.4 µM (inactive)

State its GI50 on SK-MEL-5: "COc1ccc(-c2oc3cc(OC)ccc3c(=O)c2O)cc1" > 100 µM (inactive)
